# reported EC50 (cAMP reporter); entries follow
Target: GLP-1 receptor (UniProt P43220 24-463, limits assumed)
Sequence (P43220 24-463 limits assumed): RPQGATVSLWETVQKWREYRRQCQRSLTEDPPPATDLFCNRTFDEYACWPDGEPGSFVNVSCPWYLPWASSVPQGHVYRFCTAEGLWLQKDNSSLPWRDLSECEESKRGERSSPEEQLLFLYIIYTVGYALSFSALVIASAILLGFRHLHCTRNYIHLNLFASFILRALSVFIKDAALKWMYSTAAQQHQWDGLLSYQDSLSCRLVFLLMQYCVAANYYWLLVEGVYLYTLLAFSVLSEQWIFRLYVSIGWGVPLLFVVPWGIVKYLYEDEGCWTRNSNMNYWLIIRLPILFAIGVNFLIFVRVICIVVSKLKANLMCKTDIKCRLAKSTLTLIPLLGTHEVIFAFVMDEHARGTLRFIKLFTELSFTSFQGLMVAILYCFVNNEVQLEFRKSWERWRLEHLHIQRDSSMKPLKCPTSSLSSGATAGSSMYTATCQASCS
Experiment: cell-based or functional assay
*1 amine or outer side, *2 acyl side, *3 side chain or, on linkers, in order; H or OH if unused. Where no end group is shown, it is not given here. Side-chain parts run from the residue outwards. [ ]: non-standard residue; d: D form. The star is where a group is joined. γGlu = O=C(O)[C@H](CCC(=O)[*:2])N[*:1]; Myristoyl = CCCCCCCCCCCCCC(=O)*; 40K‑ME = not defined here; 40K‑TE = not defined here; Ac3c = NC1(C(=O)O)CC1; Aib = CC(C)(N)C(=O)O
Please give a number only; it is taken to be in nM.

binder	EC50 (cAMP reporter) (nM)
Y[Aib]QGTFTSDYSIYLDKEAA[Aib]KFVNWLLAGGPSSGAPPPSC-NH2 (lactam (positions not given here); also: lactam between underlined residues, underlining not shown) [peptide of SEQ ID NO: 58]	0.014
Y[Aib]QGTFTSDK([γGlu-Myristoyl])SIYLDKQAA[Aib]EFVNWLLAGGPSSGAPPPSC(40K‑ME)-NH2 (reading uncertain) [peptide of SEQ ID NO: 68]	0.612
Y[Aib]QGTFISDYSIYLDKQAA[Ac3c]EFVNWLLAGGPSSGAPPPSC(40K‑TE)-NH2 (not fully specified; reading uncertain) [peptide of SEQ ID NO: 75]	17.7

--- query ---
Please look up its EC50 (cAMP reporter): Y[Aib]EGTFTSDYSIYLDKQAA[Aib]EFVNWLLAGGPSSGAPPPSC(PEG 40 kDa)-NH2 [peptide of SEQ ID NO: 175]
0.066
